Data origin: PubChem BioAssay (NCI)

Assay: NCI Yeast Anticancer Drug Screen. Data for the sgs1 mgt1 strain (AID 161)
Settings: S. cerevisiae sgs1 mgt1 strain, at 50.0 µM (retest, dose inferred, filed as 5.0), active compounds read high
About 79,000 compounds went through this panel and 15% of them were active in at least one assay; those are over-represented in the sample as a whole.
Classification field. Basis: growth inhibition. Definitions: range A (below 30%), range B (30% to below 90%), range C (90% or more)

>>> discrete_label("COC(=O)C([NH-])c1ccccc1.COC(=O)C([NH-])c1ccccc1.[Cl][Pt+2][Cl] (stereo unspecified)")
"range B"
>>> discrete_label("O=S(=O)(O)c1cc2ccccc2c(O)c1N=Nc1ccccc1")
"range C"
>>> discrete_label("CCOC(=S)SCc1nc2ccccc2[nH]1")
"range A"
>>> discrete_label("C/C(=N/Nc1ccc([N+](=O)[O-])cc1[N+](=O)[O-])C1=CCC(C(C)(C)C)CC1 (stereo unspecified)")
"range A"
>>> discrete_label("CSC(=S)NN=C1CCCCC1")
"range C"
>>> discrete_label("c1ccc(N=C2c3ccsc3C(=Nc3ccccc3)c3ccsc32)cc1")
"range C"
>>> discrete_label("CNc1ccc(N)cc1")
"range A"
>>> discrete_label("CCCCN(C)C(=S)N/N=C(\\C)c1ccccn1")
"range C"
>>> discrete_label("N#CSc1cc(SC#N)c2ccccc2c1N")
"range A"
>>> discrete_label("CCOC(=O)C(=CNC(=S)Nc1c(CC)cccc1C(C)(C)C)C(=O)OCC")
"range A"
>>> discrete_label("Cc1c2ccccc2c(C)c2c1ccc1ccccc12")
"range C"
>>> discrete_label("NS(=O)(=O)c1ccc(NC(=S)/N=C\\C(C(=O)c2ccccc2)=C(\\O)c2ccccc2)cc1")
"range A"
>>> discrete_label("N=C(N)SC1c2ccccc2-c2cc([N+](=O)[O-])ccc21 (stereo unspecified)")
"range C"
>>> discrete_label("Cc1cc(Cl)c2c(c1)C(=N/O)/C(=C\\c1ccco1)O2")
"range C"
>>> discrete_label("COc1ccc(-c2c(C#N)c(-c3ccc(C)cc3)n(NS(=O)(=O)c3ccc(C)cc3)c(=O)c2C#N)cc1")
"range B"
>>> discrete_label("COc1cc(C(c2cc3c(cc2O)OCO3)N2CCCCC2)cc(OC)c1OC (stereo unspecified)")
"range A"
>>> discrete_label("Cc1ccc(S(=O)(=O)Nc2ccc3c(c2)C(=O)c2ccccc2-3)cc1")
"range C"
>>> discrete_label("OC(Cc1ccccc1)(c1ccccc1)C(O)(Cc1ccccc1)c1ccccc1 (stereo unspecified)")
"range B"
>>> discrete_label("N#CSCC(=O)c1ccc(Cl)cc1")
"range C"
>>> discrete_label("CCOc1ccc2c(c1)nc1ccccc1[n+]2CC")
"range A"
>>> discrete_label("O=C1NN(C2=NNC3(C(=O)N2)c2ccccc2-c2ccccc23)C(c2ccccc2)=N/C1=C/c1ccc(O)cc1")
"range A"
>>> discrete_label("COc1ccccc1C1SC(c2ccccc2)(c2ccccc2)OC1=O (stereo unspecified)")
"range A"
>>> discrete_label("N#CC1Oc2ccccc2N1C(=O)c1ccccc1 (stereo unspecified)")
"range A"
>>> discrete_label("COC/C(Br)=C\\SC#N (tested in a mixture with another compound)")
"range B"
